# system-tested: Cell division control protein 42 homolog (Homo sapiens, UniProt P60953)
# Sequence (P60953 whole entry): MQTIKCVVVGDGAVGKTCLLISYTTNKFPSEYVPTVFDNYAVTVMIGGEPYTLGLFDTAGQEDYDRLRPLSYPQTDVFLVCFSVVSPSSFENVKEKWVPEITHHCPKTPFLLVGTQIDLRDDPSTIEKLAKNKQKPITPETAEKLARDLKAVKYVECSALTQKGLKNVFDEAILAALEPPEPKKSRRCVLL
# assay-comment: wild-type Cdc42 nucleotide-binding inhibitors, SAR follow-up, biochemical, bead-based multiplex flow cytometry, oxadiazole series (AID 2037)
# condition-info: inactive by the depositor's call
parameter-measured: EC50

Example compounds with recorded EC50:
Cc1ccc(C)c(N2CCN(C(=O)CCc3nc(-c4ccc(C(F)(F)F)cc4)no3)CC2)c1; 3.21 µM
COc1ccc(-c2noc(CCC(=O)N3CCN(c4cccc(OC)c4)CC3)n2)cc1 [KUC103349N]; 12.1 µM
Cc1ccc(C)c(N2CCN(C(=O)CCc3nc(-c4cccc(Br)c4)no3)CC2)c1 [KUC103367N]; 2.14 µM

I need EC50 for every entry listed below, if you could help.
1. COc1ccc(-c2noc(CCC(=O)N3CCN(c4cccc(C)c4C)CC3)n2)cc1
2. Cc1ccc(C)c(N2CCN(C(=O)CCc3nc(-c4ccc(Br)cc4)no3)CC2)c1 [UNM-0000306072]

1.15 µM
1.62 µM

Lab note: each compound below needs its EC50 filled in.
1. COc1ccc(-c2noc(CCC(=O)N3CCN(c4ccc(OC)cc4)CC3)n2)cc1
2. COc1ccc(-c2noc(CCC(=O)N3CCN(c4cccc(C(F)(F)F)c4)CC3)n2)cc1

0.45 µM
1.92 µM
